PROPERTY: melting point

Some entries whose results are on file:
COMPOUND	melting point
CCC(=O)Nc1cc(-c2sc(C)nc2-c2cccc(Cl)c2)ccn1 [H 30-7]	134 to 135 °C
Cc1cccc(-c2nc(C(C)OC(=O)c3ccccc3)sc2-c2ccnc(N)c2)c1 (stereo not shown) [H 99-2]	89 to 91 °C
Cc1cccc(-c2nc(-c3ccccc3F)sc2-c2ccnc(C)c2)c1 [H 14-3]	73 to 74 °C
CSc1ccc(-c2nc(-c3cccc(C)c3)c(-c3ccnc(NCc4ccccc4)c3)s2)cc1 [D 19-17]	134 to 136 °C
Cc1cccc(-c2nc(-c3ccc(S(C)(=O)=O)cc3)sc2-c2ccnc(F)c2)c1 [H 58-4]	195 to 199 °C
CCCc1nc(-c2cccc(C)c2)c(-c2ccnc(N)c2)s1 [H 18-4]	113 to 115 °C
CC(C)(C)c1ccc(-c2nc(NC(=O)c3cccnc3)sc2-c2ccncc2)cc1 [23-165]	326 to 328 °C
CCC(=O)Nc1cc(-c2sc(CCSC)nc2-c2cccc(C)c2)ccn1 [H 102-1]	85 to 86 °C

In: Consider the compound Cc1cccc(-c2nc(-c3ccc(F)cc3)sc2-c2ccnc(NC(=O)c3ccccc3)c2)c1 [D 16-11] and give its recorded melting point.
Out: 126 to 128 °C

In: Item CNc1nc(-c2cccc(C)c2)c(-c2ccnc(NC3CCCCC3)c2)s1 [H 36-2] : provide melting point
Out: 211 to 212 °C

In: Report melting point for CCC(=O)Nc1cc(-c2sc(CC)nc2-c2cccc(C(F)(F)F)c2)ccn1 [H 84-3]
Out: 126 to 127 °C

In: Supply melting point value. Item: CCc1nc(-c2cccc(C(=O)OC)c2)c(-c2ccnc(N)c2)s1 [H 78]
Out: 173 to 174 °C

In: Look up and state reported melting point for CCC(=O)Nc1cc(-c2sc(C3CCN(C)CC3)nc2-c2cccc(Cl)c2)ccn1.Cl.Cl
Out: 350 to 351 °C

In: Identify the reported melting point for the following entry. Cc1cc(C)cc(-c2nc(N)sc2-c2ccncc2)c1 [23-133]
Out: 242 to 244 °C

###

PROPERTY: melting point

COMPOUND	RESULT
Cc1cccc(-c2nc(N(C)C(=O)c3ccc(Cl)nc3)sc2-c2ccnc(NC3CCCCC3)c2)c1 [H 44-4]	171 to 172 °C
Cc1cc(C)cc(-c2nc(-c3ccc(S(C)(=O)=O)cc3)sc2-c2cc[n+]([O-])c(C)c2)c1 [H 59]	255 to 256 °C
CCc1nc(-c2ccc(F)c(C)c2)c(-c2ccnc(NC(C)=O)c2)s1 [H 82-4]	142 to 143 °C
CC(C)(C)C(=O)Nc1cc(-c2sc(-c3ccc(S(C)(=O)=O)cc3)nc2-c2cccc(Cl)c2)ccn1 [H 58-8]	122 to 123 °C
Cc1cccc(-c2nc(N)sc2-c2ccnc(NC3CCCCC3)c2)c1 [H 34-2]	168 to 169 °C
CCNC(=O)Nc1cc(-c2sc(CC)nc2-c2cccc(Cl)c2)ccn1 [H 109]	177 to 180 °C

Let's switch to this compound now.
In: Specify measured melting point for CSc1ccc(-c2nc(-c3cccc(Cl)c3)c(-c3ccnc(NC(=O)C(C)(C)C)c3)s2)cc1 [H 30-12] .
Out: 119 to 120 °C
